Tested on: Brown Rust (Puccinia recondita) on wheat
Procedure details: Greenhouse crop test: control of Brown Rust on wheat in combination with commercial fungicides
Assay type: in vivo
Particulars: with Balaya 0.25 L/ha; wheat JB Diego; inoculated 24 hours after treatment; evaluated at fourteen days
Measure name: Balaya (% control of the disease, compound + fungicide) (%)

[
  {
    "Compound": "Cc1ccccc1NS(=O)(=O)c1ccc(-c2ccccc2)cc1",
    "Value measured": 54.9
  },
  {
    "Compound": "O=S(=O)(Nc1cccc(Cl)c1N1CCOCC1)c1ccc(-c2ccccc2)cc1",
    "Value measured": 24.2
  },
  {
    "Compound": "COc1cccc(NS(=O)(=O)c2ccc(-c3ccccc3)cc2)c1",
    "Value measured": 38.9
  },
  {
    "Compound": "COc1cccc(NS(=O)(=O)c2ccc(-c3ccc(C)cc3)cc2)c1",
    "Value measured": 48.3
  },
  {
    "Compound": "O=S(=O)(Nc1ccc(-c2nncs2)cc1)c1ccc(-c2ccccc2)cc1",
    "Value measured": 59.5
  },
  {
    "Compound": "CCCc1ccc(S(=O)(=O)Nc2cccc(C)c2)cc1 [Compound A-62, 4-propyl-N-(m-tolyl)benzenesulfonamide]",
    "Value measured": 21.7
  },
  {
    "Compound": "Cc1ccc(C)c(NS(=O)(=O)c2ccc(-c3ccccc3)cc2)c1",
    "Value measured": 13.0
  },
  {
    "Compound": "Cc1cccc(NS(=O)(=O)c2ccc(C3CCCCC3)cc2)c1",
    "Value measured": "−75.9"
  },
  {
    "Compound": "CN(c1ccccc1)S(=O)(=O)c1ccc(-c2ccccc2)cc1",
    "Value measured": 56.5
  },
  {
    "Compound": "Cc1cccc(NS(=O)(=O)c2ccc(CCC(=O)O)cc2)c1",
    "Value measured": 67.2
  },
  {
    "Compound": "O=C1Cc2cc(NS(=O)(=O)c3ccc(-c4ccccc4)cc3)ccc2N1",
    "Value measured": 77.2
  }
]

Reference for the values: patent US20250275539A1
